test_system: Phosphatidylinositol 4,5-bisphosphate 3-kinase catalytic subunit alpha isoform (Homo sapiens, UniProt P42336)
Sequence (P42336 whole entry, canonical isoform): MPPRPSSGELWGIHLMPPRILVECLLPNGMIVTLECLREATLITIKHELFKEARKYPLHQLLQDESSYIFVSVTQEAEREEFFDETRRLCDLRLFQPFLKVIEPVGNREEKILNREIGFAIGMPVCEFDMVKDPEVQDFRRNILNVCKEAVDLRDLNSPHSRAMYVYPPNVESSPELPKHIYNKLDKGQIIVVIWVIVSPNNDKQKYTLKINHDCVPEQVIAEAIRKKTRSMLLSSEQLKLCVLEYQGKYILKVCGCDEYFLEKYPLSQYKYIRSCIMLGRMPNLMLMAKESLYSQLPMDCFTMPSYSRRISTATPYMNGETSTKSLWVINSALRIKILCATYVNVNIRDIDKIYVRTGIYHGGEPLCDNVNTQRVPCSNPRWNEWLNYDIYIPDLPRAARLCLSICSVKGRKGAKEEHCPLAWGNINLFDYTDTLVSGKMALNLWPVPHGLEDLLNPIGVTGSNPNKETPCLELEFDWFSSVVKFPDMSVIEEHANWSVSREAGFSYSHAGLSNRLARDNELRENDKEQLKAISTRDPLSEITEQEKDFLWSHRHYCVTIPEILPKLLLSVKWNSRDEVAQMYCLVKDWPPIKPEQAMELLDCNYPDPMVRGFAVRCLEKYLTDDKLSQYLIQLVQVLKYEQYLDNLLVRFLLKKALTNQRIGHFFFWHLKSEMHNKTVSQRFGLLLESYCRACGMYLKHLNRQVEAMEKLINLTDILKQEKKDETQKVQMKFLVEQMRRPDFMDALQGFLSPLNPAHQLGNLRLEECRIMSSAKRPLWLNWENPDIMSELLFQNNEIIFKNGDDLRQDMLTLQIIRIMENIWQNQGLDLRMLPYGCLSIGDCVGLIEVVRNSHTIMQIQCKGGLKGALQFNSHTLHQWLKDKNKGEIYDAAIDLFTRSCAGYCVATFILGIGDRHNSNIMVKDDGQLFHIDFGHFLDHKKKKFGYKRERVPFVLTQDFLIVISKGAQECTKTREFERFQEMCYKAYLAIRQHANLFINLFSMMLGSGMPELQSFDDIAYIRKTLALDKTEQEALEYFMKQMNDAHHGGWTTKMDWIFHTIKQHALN
assay_info: Inhibition of PI3Kalpha in human MDA-MB-361 cells assessed as reduction of phosphorylated Akt (T308) level after 4 hrs by Western blotting
Format: cell-based
attribute_measured: IC50
Include the unit right after the number.

Lab note: measured IC50 of CN(C)CCCOc1ccc(CN2CCC(n3cnc4c(N5CCOCC5)nc(-c5cccc(CO)c5)nc43)CC2)cc1 was 300 nM

###

test_system: Serine/threonine-protein kinase mTOR (Homo sapiens, UniProt P42345)
attribute_measured: IC50
Include the unit right after the number.

Lab note: measured IC50 of Oc1cccc(-c2nc(N3CCOCC3)c3ncn(C4CCN(Cc5ccc(N6CCOCC6)nc5)CC4)c3n2)c1 was 152 nM

Lab note: measured IC50 of Oc1cccc(-c2nc(N3CCOCC3)c3nc[nH]c3n2)c1 was 1650 nM

Lab note: measured IC50 of Oc1cccc(-c2nc(N3CCOCC3)c3ncn(C4CCNCC4)c3n2)c1 was 950 nM

Lab note: measured IC50 of OCc1cccc(-c2nc(N3CCOCC3)c3ncn(C4CCN(c5ccc(F)cc5F)CC4)c3n2)c1 was 2050 nM

Lab note: measured IC50 of Oc1cccc(-c2nc(N3CCOCC3)c3ncn(C4CCN(Cc5cncc(Cl)c5)CC4)c3n2)c1 was 200 nM

###

assay_info: Growth inhibition of human PC3MM2 cells after 72 hrs by celltiter assay
Assay type: functional, cell-based
condition_label: PC3MM2, 72 h
attribute_measured: pIC50
Friendly reminder that pIC50 comes from taking -log10 of the concentration in mol/L.

Lab note: measured pIC50 of CN(C)CCCOc1ccc(CN2CCC(n3cnc4c(N5CCOCC5)nc(-c5cccc(CO)c5)nc43)CC2)cc1 was 6.29

###

test_system: Phosphatidylinositol 4,5-bisphosphate 3-kinase catalytic subunit gamma isoform (Homo sapiens)
Sequence (P48736 whole entry, canonical isoform): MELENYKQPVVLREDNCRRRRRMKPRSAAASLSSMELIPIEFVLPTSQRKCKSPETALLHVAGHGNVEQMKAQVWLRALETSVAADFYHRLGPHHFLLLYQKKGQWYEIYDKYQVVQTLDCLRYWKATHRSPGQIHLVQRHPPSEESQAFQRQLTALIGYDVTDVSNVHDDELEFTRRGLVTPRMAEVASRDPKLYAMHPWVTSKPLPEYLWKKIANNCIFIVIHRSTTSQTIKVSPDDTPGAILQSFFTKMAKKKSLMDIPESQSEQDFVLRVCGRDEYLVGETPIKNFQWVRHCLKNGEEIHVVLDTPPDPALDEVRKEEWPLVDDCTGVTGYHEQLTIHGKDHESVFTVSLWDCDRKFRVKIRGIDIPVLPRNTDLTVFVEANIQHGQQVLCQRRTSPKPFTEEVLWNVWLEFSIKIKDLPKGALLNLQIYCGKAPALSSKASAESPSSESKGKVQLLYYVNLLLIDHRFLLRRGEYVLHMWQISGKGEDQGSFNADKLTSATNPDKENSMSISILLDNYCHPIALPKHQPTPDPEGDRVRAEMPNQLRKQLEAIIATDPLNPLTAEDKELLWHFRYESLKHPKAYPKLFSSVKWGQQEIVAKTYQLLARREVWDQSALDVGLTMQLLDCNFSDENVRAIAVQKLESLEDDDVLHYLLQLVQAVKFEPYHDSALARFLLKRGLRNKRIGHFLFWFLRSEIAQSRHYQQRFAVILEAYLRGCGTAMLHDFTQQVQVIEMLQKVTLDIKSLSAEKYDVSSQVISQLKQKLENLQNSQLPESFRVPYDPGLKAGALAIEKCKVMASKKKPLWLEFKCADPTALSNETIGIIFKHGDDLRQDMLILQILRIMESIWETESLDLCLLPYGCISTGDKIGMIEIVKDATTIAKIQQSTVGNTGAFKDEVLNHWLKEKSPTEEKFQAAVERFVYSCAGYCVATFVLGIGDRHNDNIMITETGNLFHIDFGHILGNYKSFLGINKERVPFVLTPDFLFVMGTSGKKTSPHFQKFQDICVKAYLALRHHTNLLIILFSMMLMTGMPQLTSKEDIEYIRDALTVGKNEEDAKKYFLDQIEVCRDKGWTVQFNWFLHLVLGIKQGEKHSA
assay_info: Inhibition of PI3Kgamma
Lab note: anything with IC50 below 600 nM is marked fulfilled; values at 600 nM or higher are marked not fulfilled.

Example entries and their recorded answers appear below.
query_smiles | class_name
CN(C)CCCOc1ccc(CN2CCC(n3cnc4c(N5CCOCC5)nc(-c5cccc(CO)c5)nc43)CC2)cc1 | fulfilled
OCc1cccc(-c2nc(N3CCOCC3)c3ncn(C4CCN(Cc5ccccc5F)CC4)c3n2)c1 | not fulfilled
Oc1cncc(-c2nc(N3CCOCC3)c3ncn(C4CCN(Cc5ccc(F)nc5)CC4)c3n2)c1 | fulfilled

INPUT: Confirm or reject: IC50 of Oc1cccc(-c2nc(N3CCOCC3)c3ncn(C4CCNCC4)c3n2)c1 lies strictly below 600 nM
OUTPUT: fulfilled

INPUT: Confirm or reject: IC50 of Oc1cccc(-c2nc(N3CCOCC3)c3ncn(C4CCN(Cc5cncc(Cl)c5)CC4)c3n2)c1 lies strictly below 600 nM
OUTPUT: fulfilled

INPUT: Confirm or reject: IC50 of Oc1cccc(-c2nc(N3CCOCC3)c3ncn(C4CCN(Cc5ccc(N6CCOCC6)nc5)CC4)c3n2)c1 lies strictly below 600 nM
OUTPUT: fulfilled

INPUT: Confirm or reject: IC50 of COc1ccc(CN2CCC(n3cnc4c(N5CCOCC5)nc(-c5cccc(O)c5)nc43)CC2)cn1 lies strictly below 600 nM
OUTPUT: fulfilled

INPUT: Confirm or reject: IC50 of Oc1cncc(-c2nc(N3CCOCC3)c3ncn(C4CCN(Cc5ccc(Cl)cc5)CC4)c3n2)c1 lies strictly below 600 nM
OUTPUT: fulfilled

INPUT: Confirm or reject: IC50 of OCc1cccc(-c2nc(N3CCOCC3)c3ncn(C4CCN(Cc5ccccn5)CC4)c3n2)c1 lies strictly below 600 nM
OUTPUT: not fulfilled

INPUT: Confirm or reject: IC50 of OCc1cccc(-c2nc(N3CCOCC3)c3ncn(C4CCN(c5ccc(F)cc5F)CC4)c3n2)c1 lies strictly below 600 nM
OUTPUT: not fulfilled

INPUT: Confirm or reject: IC50 of Oc1cccc(-c2nc(N3CCOCC3)c3nc[nH]c3n2)c1 lies strictly below 600 nM
OUTPUT: not fulfilled

INPUT: Confirm or reject: IC50 of Oc1cncc(-c2nc(N3CCOCC3)c3ncn(C4CCNCC4)c3n2)c1 lies strictly below 600 nM
OUTPUT: fulfilled

INPUT: Confirm or reject: IC50 of Cc1ccc(CN2CCC(n3cnc4c(N5CCOCC5)nc(-c5cncc(O)c5)nc43)CC2)cc1 lies strictly below 600 nM
OUTPUT: fulfilled
